# System: ATP;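 also: ATP exposure 15 min at 22 °C before imaging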
# measurement-description: switch fluorescence ratio, 500 uM ATP over buffer (Cy3 cluster intensity, sum of 5 cycles each) (fold (ratio)); higher = stronger signal-on switching upon ATP binding; sequences stand for … in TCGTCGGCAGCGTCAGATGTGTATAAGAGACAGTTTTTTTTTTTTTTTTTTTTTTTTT…TC
# particulars: aptamer strand: ATP DNA aptamer (quencher-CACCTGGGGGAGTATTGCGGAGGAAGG + anchor), 100 nM annealed; ATP concentration: 500 uM
reported-property: switch fluorescence ratio
Lab note: jot the number down without any unit.

Recorded switch fluorescence ratio, per entry:
GAGGGTAATC
1
TGGGATTCCT
1.03
ATTGCGGGGG
0.994
GTTGAAGTTG
0.968
CCAGGGAGGT
1
CAAAAGAACG
0.975
CTGGGTTGCG
0.958
CAGGTCAGGG
0.998

Report switch fluorescence ratio for `CCGTGTGACT` 1.08

Report switch fluorescence ratio for `CATAGTAGAA` 0.978

Value source: the supplement of paper PMC10126150
